Target: human activated kallikrein enzyme (Homo sapiens)
Sequence (P03952 391-638 limits assumed): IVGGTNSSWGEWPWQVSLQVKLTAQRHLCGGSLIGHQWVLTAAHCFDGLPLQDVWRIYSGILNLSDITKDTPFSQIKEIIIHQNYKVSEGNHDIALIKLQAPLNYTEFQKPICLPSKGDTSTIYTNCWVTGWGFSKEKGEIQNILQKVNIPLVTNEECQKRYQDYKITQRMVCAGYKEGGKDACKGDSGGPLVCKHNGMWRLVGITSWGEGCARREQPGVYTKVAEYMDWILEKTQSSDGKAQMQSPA
Sequence (P03952 20-390 partner limits assumed): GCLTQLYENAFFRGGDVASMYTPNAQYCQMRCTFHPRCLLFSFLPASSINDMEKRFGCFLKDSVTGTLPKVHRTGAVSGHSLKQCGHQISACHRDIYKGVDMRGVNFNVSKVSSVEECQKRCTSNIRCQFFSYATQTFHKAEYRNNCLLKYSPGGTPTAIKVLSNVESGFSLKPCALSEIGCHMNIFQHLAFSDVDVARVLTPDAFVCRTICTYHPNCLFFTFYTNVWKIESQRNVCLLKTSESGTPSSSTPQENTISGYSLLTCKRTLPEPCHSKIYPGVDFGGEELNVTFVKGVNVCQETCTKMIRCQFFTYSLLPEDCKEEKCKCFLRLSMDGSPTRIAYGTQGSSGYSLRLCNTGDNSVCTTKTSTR
Test: Inhibition of human activated plasma kallikrein, fluorogenic PFR-AMC substrate, 500 pM enzyme format
Format: biochemical
Conditions: 500 pM activated kallikrein; 300 μM PFR-AMC; 30 min preincubation; 10 min room temperature; pH 7.5; read-out: Primary Dose Response Assay: Average EC50
Structures can show the parent of a compound that is named as a salt.
OBSERVABLE: EC50

Here's what some known entries look like.
                                   compound  reported_result
0  Cc1cnc2ccc(Cn3cc(C(=O)NCc4c(C)cc5c(N)nccc5c4C)cn3)cc2c1           < 1 nM
1  Cc1cc2c(N)nccc2c(C)c1CNc1cc(OCc2ccc(CN3CCCCC3=O)cc2)cnn1           < 1 nM
2  Cc1cc2c(N)nccc2c(C)c1CNc1cc(NCc2cc(C)c(OCc3nccs3)c(C)c2)ncn1 [Example 355, formic acid salt]       1 to 10 nM
3  Cc1cc2c(N)nccc2c(C)c1CNC(=O)c1cnn(Cc2ccc(CC(=O)N3C[C@@H]4[C@H](CF)[C@@H]4C3)cc2)c1       1 to 10 nM
4  Cc1cc2c(N)nccc2c(C)c1CNc1cc(NCc2ccc(OCC(=O)N3CC4CC4C3)cc2)ncn1 (stereo not drawn) [Example 344, formic acid salt]           < 1 nM
5  Cc1cc2c(N)nccc2c(C)c1CN1C(=O)c2ncc(OCc3cn4cc(C5CC5)ccc4n3)cc21        > 1000 nM

Qu. Request: EC50, test system human activated kallikrein enzyme (Homo sapiens), entry "Cc1ccc2nc(Cn3cc(C(=O)NCc4c(C)cc5c(N(C(=O)OC(C)C)C(=O)OC(C)C)nccc5c4C)cn3)cn2c1"
Ans. 100 to 1000 nM

Qu. Request: EC50, test system human activated kallikrein enzyme (Homo sapiens), entry "Cc1cc2c(N)nccc2c(C)c1CNc1cc(OCc2ccc3c(cnn3C)c2)cnn1"
Ans. 1 to 10 nM

Qu. Request: EC50, test system human activated kallikrein enzyme (Homo sapiens), entry "Cc1cc2c(N)nccc2c(C)c1CNc1cc(OCc2cn3cc(C4CC4)cc(C4(F)COC4)c3n2)ncn1"
Ans. < 1 nM

Qu. Request: EC50, test system human activated kallikrein enzyme (Homo sapiens), entry "Cc1cc2c(N)nccc2c(C)c1CNc1cc(OCc2cc3cc(C4CC4)cnc3s2)ncn1"
Ans. 1 to 10 nM

Qu. Request: EC50, test system human activated kallikrein enzyme (Homo sapiens), entry "Cc1cc2c(N)nccc2c(C)c1CNc1cc(N2C[C@@H](O[Si](C)(C)C(C)(C)C)C[C@@H]2c2cn3cc(C4CC4)ccc3n2)ncn1"
Ans. 1 to 10 nM
